Each recorded value in this set is attributed to patent US20160297884A1.

Biological target: T1, Cynomolgus monkey BCMA (cynomolgus monkey)
T1 construct: Soluble analyte in SPR; also called cyBCMA; Cyno BCMA
Experiment: SPR, IgG immobilised, cyno BCMA analyte
Description: All experiments were performed on a Bio-Rad Proteon XPR36 surface Plasmon resonance biosensor (Bio-Rad, Hercules, Calif.). […] The analysis temperature for the immobilization was 25° C. and the running buffer was HBS-T+(10 mM HEPES, 150 mM NaCl, 0.05% Tween-20, pH 7.4). […] The analysis temperature for the BCMA binding analysis was 37° C. or 25° C. in a running buffer of HBS-T+, supplemented with 1 mg/mL BSA. […] Immediately after the 50 nM BCMA injection, dissociation was monitored for 2 hours. […]

BINDER	kon / M⁻¹ s⁻¹
COMBO_Rd4_0.6nM_C09 (antibody, V domains shown, IgG) VH: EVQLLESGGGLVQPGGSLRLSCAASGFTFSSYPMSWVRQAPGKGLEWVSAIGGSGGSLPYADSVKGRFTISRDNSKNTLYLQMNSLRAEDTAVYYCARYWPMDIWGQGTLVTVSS VL: EIVLTQSPGTLSLSPGERATLSCRASQSVSSTYLAWYQQKPGQAPRLLMYDASIRATGIPDRFSGSGSGTDFTLTISRLEPEDFAVYYCQQYQEWPLTFGQGTKVEIK	3.77e+06
COMBO_Rd4_6nM_C02 (antibody, V domains shown, IgG) VH: EVQLLESGGGLVQPGGSLRLSCAASGFTFSSYAMNWVRQAPGKGLEWVSAISDSGGFVYYADSVKGRFTISRDNSKNTLYLQMNSLRAEDTAVYYCARYWPMDSWGQGTLVTVSS VL: EIVLTQSPGTLSLSPGERATLSCRASQSVSSSYLAWYQQKPGQAPRLLMYDASIRATGIPDRFSGSGSGTDFTLTISRLEPEDFAVYYCQQYEFWPLTFGQGTKVEIK	795000
COMBO_Rd4_0.6nM_C14 (antibody, V domains shown, IgG) VH: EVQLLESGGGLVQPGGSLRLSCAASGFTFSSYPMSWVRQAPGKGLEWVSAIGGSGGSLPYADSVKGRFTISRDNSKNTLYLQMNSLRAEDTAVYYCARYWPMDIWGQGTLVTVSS VL: EIVLTQSPGTLSLSPGERATLSCRASQSVSALYLAWYQQKPGQAPRLLMYDASIRATGIPDRFSGSGSGTDFTLTISRLEPEDFAVYYCQQYYGWPLTFGQGTKVEIK	3.48e+06
C01_Rd4_0.6nM_C09 (antibody, V domains shown, IgG) VH: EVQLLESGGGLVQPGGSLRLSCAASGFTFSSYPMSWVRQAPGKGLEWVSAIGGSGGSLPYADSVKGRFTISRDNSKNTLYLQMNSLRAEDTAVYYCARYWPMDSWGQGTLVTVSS VL: EIVLTQSPGTLSLSPGERATLSCRASQSVSSLFLAWYQQKPGQAPRLLIYDASSRAPGIPDRFSGSGSGTDFTLTISRLEPEDFAVYYCQQYSAWPLTFGQGTKVEIK	5.28e+06
A02_Rd4_0.6nM_C10 (antibody, V domains shown, IgG) VH: EVQLLESGGGLVQPGGSLRLSCAASGFTFSSYAMNWVRQAPGKGLEWVSAISGWGGSLPYADSVKGRFTISRDNSKNTLYLQMNSLRAEDTAVYYCARYWPMDSWGQGTLVTVSS VL: EIVLTQSPGTLSLSPGERATLSCRASQSVSAQYLAWYQQKPGQAPRLLMYDASIRATGIPDRFSGSGSGTDFTLTISRLEPEDFAVYYCQQYQRWPLTFGQGTKVEIK	883000
COMBO_Rd4_0.6nM_C21 (antibody, V domains shown, IgG) VH: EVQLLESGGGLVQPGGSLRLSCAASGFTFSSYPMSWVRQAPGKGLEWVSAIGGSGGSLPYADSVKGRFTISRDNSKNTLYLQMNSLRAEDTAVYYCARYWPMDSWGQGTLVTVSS VL: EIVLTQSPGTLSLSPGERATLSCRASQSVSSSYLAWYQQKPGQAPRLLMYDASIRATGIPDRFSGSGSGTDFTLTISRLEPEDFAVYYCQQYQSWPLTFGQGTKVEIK	3.63e+06
COMBO_Rd4_0.6nM_C20 (antibody, V domains shown, IgG) VH: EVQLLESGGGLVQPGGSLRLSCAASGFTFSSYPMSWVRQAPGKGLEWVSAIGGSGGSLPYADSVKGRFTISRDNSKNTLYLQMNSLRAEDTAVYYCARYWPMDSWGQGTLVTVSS VL: EIVLTQSPGTLSLSPGERATLSCRASQSVSYLYLAWYQQKPGQAPRLLMYDASIRATGIPDRFSGSGSGTDFTLTISRLEPEDFAVYYCQQYMEWPLTFGQGTKVEIK	3.09e+06
A02_Rd4_6nM_C01 (antibody, V domains shown, IgG) VH: EVQLLESGGGLVQPGGSLRLSCAASGFTFSSYAMNWVRQAPGKGLEWVSAITASGGSTYYADSVKGRFTISRDNSKNTLYLQMNSLRAEDTAVYYCARYWPMSLWGQGTLVTVSS VL: EIVLTQSPGTLSLSPGERATLSCRASQSVSAYYLAWYQQKPGQAPRLLMYDASIRATGIPDRFSGSGSGTDFTLTISRLEPEDFAVYYCQQYERWPLTFGQGTKVEIK	1.45e+06
C01_Rd4_6nM_C20 (antibody, V domains shown, IgG) VH: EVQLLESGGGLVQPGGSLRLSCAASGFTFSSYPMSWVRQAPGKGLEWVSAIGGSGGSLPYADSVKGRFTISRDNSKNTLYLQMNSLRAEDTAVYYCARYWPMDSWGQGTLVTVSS VL: EIVLTQSPGTLSLSPGERATLSCRASQSVSPLYLAWYQQKPGQAPRLLIYDASSRAPGIPDRFSGSGSGTDFTLTISRLEPEDFAVYYCQQYSAFPLTFGQGTKVEIK	3.6e+06
C01_Rd4_0.6nM_C27 (antibody, V domains shown, IgG) VH: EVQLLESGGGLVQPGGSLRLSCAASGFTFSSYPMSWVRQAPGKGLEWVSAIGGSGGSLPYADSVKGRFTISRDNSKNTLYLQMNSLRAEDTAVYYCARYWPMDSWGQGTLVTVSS VL: EIVLTQSPGTLSLSPGERATLSCRASQSVSSTYLAWYQQKPGQAPRLLIYDASSRAPGIPDRFSGSGSGTDFTLTISRLEPEDFAVYYCQQYSRWPLTFGQGTKVEIK	3.34e+06
